Every entry's value here was drawn from the Immune Epitope Database (IEDB).

- ASSAY_SYSTEM: HLA-B*58:01
- EXPERIMENTAL_DETAILS: IEDB peptide-MHC binding, purified MHC/direct/fluorescence; filed as Kd, often an IC50 or EC50 that approximates it; bounds were set here for any values at or beyond the usual limits of such assays
- MEASUREMENT_PARAMETERS: source organism: West Nile virus
Measured Kd values are reported for all entries that follow.

SEQUENCE_CHAIN	ASSAY_RESULT
HSRRSRRSL	≥ 20 µM

Asked: Returns the measured Kd for the input sequence. Input: FTRYRKEAI
Given back: ≥ 20 µM

====

Kd listing for selected sequences.
- ASSAY_SYSTEM: HLA-B*48:01
- EXPERIMENTAL_DETAILS: IEDB peptide-MHC binding, purified MHC/direct/fluorescence; filed as Kd, often an IC50 or EC50 that approximates it; bounds were set here for any values at or beyond the usual limits of such assays
- MEASUREMENT_PARAMETERS: source organism: West Nile virus

SEQUENCE_CHAIN	ASSAY_SYSTEM	Kd
KRVQEVKGY	HLA-B*48:01	≥ 20 µM
RRSRRSLTV	HLA-B*48:01	≥ 20 µM

Note: attention shifts to another entry.
Asked: Requested read-out: Kd. Entry: FTRYRKEAI
Given back: ≥ 20 µM

====

- ASSAY_SYSTEM: HLA-B*15:01
- EXPERIMENTAL_DETAILS: IEDB peptide-MHC binding, purified MHC/competitive/fluorescence; filed as Kd, often an IC50 or EC50 that approximates it; bounds were set here for any values at or beyond the usual limits of such assays
- MEASUREMENT_PARAMETERS: source organism: Escherichia coli F11
OBSERVATION_TYPE: Kd

Asked: Record request: Kd value, item GIAACLMTY
Given back: 3 µM

====

Reported Kd values for a set of sequences
- ASSAY_SYSTEM: HLA-A*01:01
- EXPERIMENTAL_DETAILS: IEDB peptide-MHC binding, purified MHC/direct/fluorescence; filed as Kd, often an IC50 or EC50 that approximates it; bounds were set here for any values at or beyond the usual limits of such assays
- MEASUREMENT_PARAMETERS: source organism: Orthohantavirus andesense

Known results for sequences:
SEQUENCE_CHAIN	ASSAY_SYSTEM	ASSAY_RESULT
HTVGLGQGY	HLA-A*01:01	≥ 5 µM
SIKFKRKLM	HLA-A*01:01	≥ 20 µM

Moving on to another sequence below.
Asked: Entry under review: FSLPSSSSY . Reported Kd?
Given back: 0.377 µM

====

Reported Kd values follow for various sequences
- ASSAY_SYSTEM: HLA-B*51:01
- EXPERIMENTAL_DETAILS: IEDB peptide-MHC binding, purified MHC/competitive/radioactivity; filed as Kd, often an IC50 or EC50 that approximates it; bounds were set here for any values at or beyond the usual limits of such assays
- MEASUREMENT_PARAMETERS: source organism: Dengue virus 1 Brazil/97-11/1997
Give the value in µM but do not write µM after it.

SEQUENCE_CHAIN	Kd / µM
PPFGESYIV	9.84

# evaluate next
Asked: For the sequence shown here, VPNYNMIIM , give the reported Kd.
Given back: 0.879

====

- ASSAY_SYSTEM: HLA-A*11:01
- EXPERIMENTAL_DETAILS: IEDB peptide-MHC binding, purified MHC/direct/fluorescence; filed as Kd, often an IC50 or EC50 that approximates it; bounds were set here for any values at or beyond the usual limits of such assays
- MEASUREMENT_PARAMETERS: source organism: Marburg virus - Musoke, Kenya, 1980
OBSERVATION_TYPE: Kd (nM)
# output: bare number, implied unit nM

Asked: Which Kd is reported for this sequence? KLDFIRNTK
Given back: 604
